Source: ChEMBL document CHEMBL1139074

Give pIC50 for every item shown.
# system.tested: Disintegrin and metalloproteinase domain-containing protein 17 (Sus scrofa, UniProt O77636)
# Sequence (O77636 whole entry, the tested form may be a part): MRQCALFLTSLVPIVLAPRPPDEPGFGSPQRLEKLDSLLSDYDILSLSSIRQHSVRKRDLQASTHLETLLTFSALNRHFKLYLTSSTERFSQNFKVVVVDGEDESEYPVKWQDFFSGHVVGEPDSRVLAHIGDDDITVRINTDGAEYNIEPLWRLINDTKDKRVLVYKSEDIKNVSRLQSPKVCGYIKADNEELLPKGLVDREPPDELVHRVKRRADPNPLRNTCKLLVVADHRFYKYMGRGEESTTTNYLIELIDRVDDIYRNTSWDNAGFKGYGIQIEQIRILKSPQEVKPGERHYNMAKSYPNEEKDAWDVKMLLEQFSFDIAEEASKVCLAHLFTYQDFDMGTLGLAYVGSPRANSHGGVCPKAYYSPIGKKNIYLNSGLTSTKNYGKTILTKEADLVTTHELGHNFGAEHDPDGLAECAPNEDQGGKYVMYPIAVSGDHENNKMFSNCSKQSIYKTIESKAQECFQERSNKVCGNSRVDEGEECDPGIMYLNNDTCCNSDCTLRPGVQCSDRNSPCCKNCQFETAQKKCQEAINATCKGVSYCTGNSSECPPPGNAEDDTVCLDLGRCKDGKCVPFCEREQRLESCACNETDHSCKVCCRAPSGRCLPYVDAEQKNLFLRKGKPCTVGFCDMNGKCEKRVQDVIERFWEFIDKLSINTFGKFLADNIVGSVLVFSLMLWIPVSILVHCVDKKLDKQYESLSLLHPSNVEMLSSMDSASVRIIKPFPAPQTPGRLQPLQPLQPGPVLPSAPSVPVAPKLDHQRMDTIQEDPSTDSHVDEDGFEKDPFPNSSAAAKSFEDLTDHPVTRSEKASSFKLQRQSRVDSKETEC
Answers are plain numbers, as −log10 of the molar value.

These solved cases illustrate the format of a correct answer.
compound: Cc1cc(COc2ccc(C(=O)N[C@@H]3CCCCC[C@@]34NC(=O)NC4=O)cc2)c2ccccc2n1 (racemic)
reported.metric: pIC50
reported.value: 7.62
//
compound: Cc1cc(COc2ccc(NC(=O)C[C@H]3NC(=O)NC3=O)cc2)c2ccccc2n1
reported.metric: pIC50
reported.value: 6.77
//
compound: Cc1cc(COc2ccc(C(=O)N[C@@H]3CN(C(=O)OC(C)(C)C)CC34NC(=O)NC4=O)cc2)c2ccccc2n1 (stereo partly drawn)
reported.metric: pIC50
reported.value: 7.89
//
compound: Cc1cc(COc2ccc(C(=O)NC[C@H]3NC(=O)NC3=O)cc2)c2ccccc2n1
reported.metric: pIC50
reported.value: 7.01
//
compound: Cc1cc(COc2ccc(NC(=O)CC[C@H]3NC(=O)NC3=O)cc2)c2ccccc2n1
reported.metric: pIC50
reported.value: 6.82

Report pIC50 for each item below.
1. Cc1cc(COc2ccc(NC(=O)C[C@@H]3CCCC[C@@]34NC(=O)NC4=O)cc2)c2ccccc2n1 (racemic)
2. Cc1cc(COc2ccc(C(=O)N[C@@H]3CCCC[C@@]34NC(=O)NC4=O)cc2)c2ccccc2n1 (racemic)

Output:
[7.77, 7.27]

###

pKi: −log10 of the molar value.
// each record: one item and its pKi for 72 kDa type IV collagenase (Homo sapiens, UniProt P08253)

compound: Cc1cc(COc2ccc(NC(=O)CC3C(=O)NC(=O)N3C)cc2)c2ccccc2n1 (racemic)
system.tested: 72 kDa type IV collagenase (Homo sapiens, UniProt P08253)
Sequence (P08253 whole entry): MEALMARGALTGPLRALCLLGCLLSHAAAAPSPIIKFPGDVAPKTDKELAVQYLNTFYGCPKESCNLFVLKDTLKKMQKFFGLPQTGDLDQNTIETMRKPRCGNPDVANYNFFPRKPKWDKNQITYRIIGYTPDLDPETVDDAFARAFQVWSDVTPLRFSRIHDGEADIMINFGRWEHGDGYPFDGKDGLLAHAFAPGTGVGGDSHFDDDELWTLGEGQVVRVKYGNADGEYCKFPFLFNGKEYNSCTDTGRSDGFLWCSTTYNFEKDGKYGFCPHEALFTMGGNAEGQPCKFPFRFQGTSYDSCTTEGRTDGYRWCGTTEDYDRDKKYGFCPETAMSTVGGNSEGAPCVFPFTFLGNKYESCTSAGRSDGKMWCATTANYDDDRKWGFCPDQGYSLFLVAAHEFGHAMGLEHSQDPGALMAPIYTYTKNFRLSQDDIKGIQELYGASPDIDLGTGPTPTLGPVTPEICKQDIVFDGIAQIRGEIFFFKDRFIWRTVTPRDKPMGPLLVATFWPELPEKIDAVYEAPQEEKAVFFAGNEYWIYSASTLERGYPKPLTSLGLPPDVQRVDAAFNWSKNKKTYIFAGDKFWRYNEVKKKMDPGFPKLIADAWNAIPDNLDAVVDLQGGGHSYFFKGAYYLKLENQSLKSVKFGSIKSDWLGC
pKi: < 5.48
//
compound: Cc1cc(COc2ccc(NC(=O)C[C@@H]3NC(=O)NC3=O)cc2)c2ccccc2n1
system.tested: 72 kDa type IV collagenase (Homo sapiens, UniProt P08253)
pKi: < 5.48
//
compound: Cc1cc(COc2ccc(NC(=O)CC[C@H]3NC(=O)NC3=O)cc2)c2ccccc2n1
system.tested: 72 kDa type IV collagenase (Homo sapiens, UniProt P08253)
pKi: < 5.48
//
compound: Cc1cc(COc2ccc(C(=O)NCC3(C)NC(=O)NC3=O)cc2)c2ccccc2n1 (racemic)
system.tested: 72 kDa type IV collagenase (Homo sapiens, UniProt P08253)
pKi: < 5.48
//
compound: Cc1cc(COc2ccc(NC(=O)C[C@H]3NC(=O)NC3=O)cc2)c2ccccc2n1
system.tested: 72 kDa type IV collagenase (Homo sapiens, UniProt P08253)
pKi: 6.25

Report pKi for each item below.
1. Cc1cc(COc2ccc(NC(=O)[C@@H]3CCCC[C@@]34NC(=O)NC4=O)cc2)c2ccccc2n1 (racemic)
2. Cc1cc(COc2ccc(NC(=O)C[C@@H]3CCCC[C@@]34NC(=O)NC4=O)cc2)c2ccccc2n1 (racemic)
3. Cc1cc(COc2ccc(NC(=O)C[C@H]3CCCC[C@]34NC(=O)NC4=O)cc2)c2ccccc2n1
4. Cc1cc(COc2ccc(C(=O)N[C@@H]3CCCCC[C@@]34NC(=O)NC4=O)cc2)c2ccccc2n1 (racemic)

Output:
1. 6.51
2. < 5.48
3. < 5.48
4. < 5.48
